Molecular target: Transient receptor potential cation channel subfamily V member 1 (Homo sapiens, UniProt Q8NER1)
Sequence (Q8NER1 whole entry): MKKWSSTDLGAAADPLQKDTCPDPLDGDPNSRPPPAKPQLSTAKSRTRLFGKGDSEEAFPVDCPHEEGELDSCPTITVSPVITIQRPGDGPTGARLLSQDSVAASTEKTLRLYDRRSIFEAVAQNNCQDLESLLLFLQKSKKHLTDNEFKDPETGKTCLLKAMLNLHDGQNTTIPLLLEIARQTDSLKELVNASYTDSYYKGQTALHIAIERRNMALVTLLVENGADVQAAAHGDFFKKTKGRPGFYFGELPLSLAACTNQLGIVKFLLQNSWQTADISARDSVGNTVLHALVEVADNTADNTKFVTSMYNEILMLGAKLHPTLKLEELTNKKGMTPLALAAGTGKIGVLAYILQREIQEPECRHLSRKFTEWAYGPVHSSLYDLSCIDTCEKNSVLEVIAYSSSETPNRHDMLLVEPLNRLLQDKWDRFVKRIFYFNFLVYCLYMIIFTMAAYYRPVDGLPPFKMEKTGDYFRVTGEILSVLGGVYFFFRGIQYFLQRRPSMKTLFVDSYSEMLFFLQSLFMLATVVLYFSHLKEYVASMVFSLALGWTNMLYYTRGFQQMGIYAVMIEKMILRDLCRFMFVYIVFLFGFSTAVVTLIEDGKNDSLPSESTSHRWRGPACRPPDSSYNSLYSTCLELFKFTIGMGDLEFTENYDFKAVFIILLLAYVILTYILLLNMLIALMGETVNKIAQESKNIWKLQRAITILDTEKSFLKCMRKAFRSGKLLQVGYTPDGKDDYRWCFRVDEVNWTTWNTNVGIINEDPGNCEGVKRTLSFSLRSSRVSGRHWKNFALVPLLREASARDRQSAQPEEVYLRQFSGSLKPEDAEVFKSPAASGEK
Assay: Inhibition of human vanilloid receptor 1 in HEK293 cells in pH 5.5-induced FLIPR assay
Format: cell-based
pIC50: −log10 of the molar value.

{"structure": "Cc1cnnc(N2CCN(C(=O)Nc3ccc(C(C)C)cc3)CC2)c1", "value_relation_sign": "=", "pIC50": 4.69}
{"structure": "O=C(Nc1ccc(C(F)(F)F)cc1)N1CCN(c2ccc(-c3ccccc3)nn2)CC1", "value_relation_sign": "<", "pIC50": 5.00}
{"structure": "Cc1cc(Cl)nnc1N1CCN(C(=O)Nc2nc3ccc(F)cc3s2)[C@H](C)C1", "value_relation_sign": "=", "pIC50": 6.65}
{"structure": "Cc1ccc(N2CCN(C(=O)Nc3ccc(C(C)C)cc3)CC2)nn1", "value_relation_sign": "<", "pIC50": 5.00}
{"structure": "Cc1ccnnc1N1CCN(C(=O)Nc2ccc(C(C)(C)C)cc2)CC1", "value_relation_sign": "=", "pIC50": 7.30}
